We begin with IC50 values for UniProtKB Q9UBN7, as collected from the published literature.

Sample answers from the record:
Compound	Endpoint	Value Observed
O=C(NO)c1cc2c(s1)CCN(S(=O)(=O)c1ccc(C(F)(F)F)cc1)C2	IC50	< 50 nM
O=C(NO)c1ccc(NC(=O)c2ccc(C3(c4ccc(F)cc4)CCCO3)cc2)cc1 (stereo not drawn)	IC50	10 to 50 nM
Cc1ccc(CNC(=O)N2CCc3cc(C(=O)NO)sc3C2)cc1	IC50	< 50 nM
O=C(NO)c1ccc2ccn(CCOc3cccc(F)c3)c2c1	IC50	1000 to 10000 nM
CC1(C)CN(C(=O)c2ccc(Cl)cc2)Cc2cc(C(=O)NO)sc21	IC50	> 1000 nM

Can you look up the measured IC50 of O=C(NO)c1ccc2c(c1)CCN(C(=O)Cc1ccc(-c3ccccc3)cc1)C2 for me?
< 50 nM

Can you look up the measured IC50 of COc1ccc(-c2ccnc(NCc3ccc(C(=O)Nc4ccccc4N)cc3)n2)cc1OC for me?
> 50000 nM

Can you look up the measured IC50 of O=C(NO)c1ccc2c(c1)CCN(C(=O)Cc1ccccc1)C2 for me?
50 to 100 nM

Can you look up the measured IC50 of Cc1cccc(NC(=O)NC(C)c2ccc(C(=O)NO)s2)c1 (stereo not drawn) for me?
< 100 nM
